This collection of values is drawn from patent US20220281976A1.

measured-target: T1, human CD33 Fc fusion protein (human, UniProt P20138 18-259)
T1 construct: also called hCD33-Fc; human CD33/Fc chimera (R&D Systems)
T1 sequence (P20138 18-259 limits assumed): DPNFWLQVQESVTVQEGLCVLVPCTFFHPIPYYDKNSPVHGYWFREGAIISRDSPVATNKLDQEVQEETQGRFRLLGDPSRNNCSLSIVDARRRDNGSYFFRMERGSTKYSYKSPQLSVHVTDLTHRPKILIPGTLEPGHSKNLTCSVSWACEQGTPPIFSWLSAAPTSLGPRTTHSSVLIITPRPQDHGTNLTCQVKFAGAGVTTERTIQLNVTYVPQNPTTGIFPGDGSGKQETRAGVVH
test-protocol: RBC adhesion to plate-bound CD33-Fc; antibody 1.0 ug/ml;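 note: red blood cells adhering to plate-coated CD33-Fc after 1 h antibody pretreatment, then 1 h at room temperature, bound cells read as peroxidase activity after lysis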
Consider the following binders; for each one, report its Percent RBC Binding to CD33.
Numbers only, in %.

Previously resolved entries follow.
binder | Percent RBC Binding to CD33, %
C-60 (antibody, V domains shown, human IgG1) VH: QVQLVQSGAEVKKPGASVKVSCKASGYTFTSYYMHWVRQAPGQGLEWMGVINPSGGSTSYAQKFQGRVTMTRDTSTSTVYMELSSLRSEDTAVYYCARESQYYDVHGMDVWGQGTTVTVSS VL: DIQLTQSPSSLSASVGDRVTITCRASQSISSYLNWYQQKPGKAPKLLIYAASSLQSGVPSRFSGSGSGTDFTLTISSLQPEDFATYYCQQSVHVPITFGGGTKVEIK | 12.9
C-10 (antibody, V domains shown, human IgG1) VH: QVQLVQSGAEVKKPGSSVKVSCKASGGTFSNYAISWVRQAPGQGLEWMGGIIPIFGTANYAQKFQGRVTITADESTSTAYMELSSLRSEDTAVYYCARDTGTYVTGDGMDVWGQGTTVTVSS VL: EIVMTQSPATLSVSPGERATLSCRASQSVSSNLAWYQQKPGQAPRLLIYGASTRATGIPARFSGSGSGTEFTLTISSLQSEDFAVYYCQQYVNLPITFGGGTKVEIK | 12.3

// below: Percent RBC Binding to CD33 requested for another binder
So what's the measured Percent RBC Binding to CD33 for this one? C-36 (antibody, V domains shown, human IgG1) VH: EVQLVESGGGLVQPGGSLRLSCAASGFTFSSYWMSWVRQAPGKGLEWVANIKQDGSEKYYVDSVKGRFTISRDNAKNSLYLQMNSLRAEDTAVYYCARDGQYYPAYGMDVWGQGTTVTVSS VL: EIVMTQSPATLSVSPGERATLSCRASQSVSSNLAWYQQKPGQAPRLLIYGASTRATGIPARFSGSGSGTEFTLTISSLQSEDFAVYYCQQYFDLPTFGGGTKVEIK
16.1
